- Test system: Staphylococcus aureus
- method-summary: Antibacterial activity against methicillin-resistant Staphylococcus aureus ATCC 1960649 assessed as reduction in bacterial growth at 64 uM incubated for 15 to 20 hrs by broth microdilution method relative to control
- Assay type: functional
- assay-setup: time 15-20 hrs, read-out: GI
metric: inhibition of growth at 64 µM

[
  {
    "substance-smiles": "N=C(N)NCCC[C@H](NC(=O)CCC(=O)NC[C@H]1O[C@H](O[C@@H]2[C@@H](O)[C@H](O[C@H]3O[C@H](CN)[C@@H](O)[C@H](O)[C@H]3O)[C@@H](N)C[C@H]2N)[C@H](O)[C@@H](N)[C@@H]1O)C(=O)N[C@@H](CS)C(N)=O",
    "metric": "inhibition of growth at 64 µM",
    "result": "25%"
  }
]

Input N=C(N)NCCC[C@H](NC(=O)[C@H](CCCNC(=N)N)NC(=O)CCC(=O)NC[C@H]1O[C@H](O[C@@H]2[C@@H](O)[C@H](O[C@H]3O[C@H](CN)[C@@H](O)[C@H](O)[C@H]3O)[C@@H](N)C[C@H]2N)[C@H](O)[C@@H](N)[C@@H]1O)C(N)=O . Output inhibition of growth at 64 µM: 30%
